Reference for the values: patent US20090175881A1

Target: T1, cynomolgus monkey IL-17A (cynomolgus monkey, UniProt A0A2K5TTB0 24-155)
T1 construct: also called cyno IL-17A; cyno IL-17
T1 sequence: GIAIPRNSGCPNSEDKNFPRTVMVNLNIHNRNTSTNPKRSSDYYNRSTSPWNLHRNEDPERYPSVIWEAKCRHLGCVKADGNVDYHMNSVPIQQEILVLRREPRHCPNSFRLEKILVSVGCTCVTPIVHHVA
Assay: KinExA, solution equilibrium
pKd: −log10 of the molar value.
experimental-endpoint: pKd

INSERT INTO assay_data (binder, experimental_endpoint, reading) VALUES
  ('humanized 16C10 (VH N54Q/M96A) (antibody, human IgG1, kappa, V domains shown, Human IgG1/kappa; also called hu 16C10; hu16C10) VH: QVQLQESGPGLVKPSETLSLTCTVSGFSLPSHSVSWIRQPPGKGLEWIGIIWNQGGTDYNSAFKSRVTISVDTSKNQFSLKLSSVTAADTAVYYCARNAYITDYYYENYFMDAWGQGTLVTVSS VL: DIVMTQSPLSLPVTPGEPASISCKSSQSLLFSENQKNYLAWYLQKPGQSPQLLIYWTSTRQSGVPDRFSGSGSGTDFTLKISRVEAEDVGVYYCQQSYYTPYTFGQGTKVEIKR', 'pKd', 10.79);
